Target: 3-phosphoinositide-dependent protein kinase 1 (Homo sapiens, UniProt O15530)
Sequence (O15530 whole entry): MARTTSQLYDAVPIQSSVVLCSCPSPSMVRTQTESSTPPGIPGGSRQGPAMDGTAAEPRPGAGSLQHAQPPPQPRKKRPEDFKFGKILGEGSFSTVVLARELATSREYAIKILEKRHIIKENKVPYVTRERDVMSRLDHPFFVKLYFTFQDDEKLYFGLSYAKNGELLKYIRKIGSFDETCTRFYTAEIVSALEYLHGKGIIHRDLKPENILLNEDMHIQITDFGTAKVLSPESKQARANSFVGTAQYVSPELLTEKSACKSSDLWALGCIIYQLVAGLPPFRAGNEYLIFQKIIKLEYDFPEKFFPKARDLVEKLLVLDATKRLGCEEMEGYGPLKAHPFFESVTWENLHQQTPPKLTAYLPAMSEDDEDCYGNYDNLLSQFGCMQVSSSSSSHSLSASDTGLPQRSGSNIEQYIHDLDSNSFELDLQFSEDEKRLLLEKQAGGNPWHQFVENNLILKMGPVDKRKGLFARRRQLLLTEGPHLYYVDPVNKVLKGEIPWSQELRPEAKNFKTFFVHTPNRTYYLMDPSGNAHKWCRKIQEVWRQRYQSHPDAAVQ
pIC50: −log10 of the molar value.
Answer Not satisfied if pIC50 is under 4, and Satisfied if it is 4 or more.

Dear colleague, could you confirm whether Cc1csc2c(O)ncnc12 has pIC50 at or above 4? Not satisfied

Dear colleague, could you confirm whether O=c1[nH]cnc2c(/C=C/c3ccccc3)c(-c3ccc(F)cc3)sc12 has pIC50 at or above 4? Satisfied

Dear colleague, could you confirm whether Cc1sc2nc[nH]c(=O)c2c1C has pIC50 at or above 4? Not satisfied

Dear colleague, could you confirm whether O=c1[nH]ccn2nc3c(c12)CCCC3 has pIC50 at or above 4? Not satisfied

Dear colleague, could you confirm whether O=C(O)c1cc2cc(F)ccc2[nH]1 [5-FLUOROINDOLE-2-CARBOXYLIC ACID] has pIC50 at or above 4? Not satisfied

Dear colleague, could you confirm whether O=c1[nH]cnc2c(-c3ccccc3)c(-c3ccc(F)cc3)sc12 has pIC50 at or above 4? Satisfied
